# MEASUREMENT_NOTES: Oral bioavailability of compound in monkey
# Format: ADME, organism-based
# EXPERIMENTAL_PARAMETERS: simiiformes, in vivo, read-out: Bioavailabiility
ASSAY_METRIC: bioavailability

1) Nc1ncnc2c1ncn2CCOCP(=O)(O)O	< 1%

----------
# Test system: Vero
# MEASUREMENT_NOTES: Concentration that reduced plaque formation by 50% was measured in HSV-2 infected vero cells in vitro
# Type: functional, cell-based
# EXPERIMENTAL_PARAMETERS: Chlorocebus sabaeus
pIC50: −log10 of the molar value.
This listing pairs compounds with measured pIC50.
ASSAY_METRIC: pIC50

1. CC(C)C(=O)OCOP(=O)(COCCn1cnc2c(N)ncnc21)OCOC(=O)C(C)C	> 6.70
2. CCOP(=O)(O)COCCn1cnc2c(N)ncnc21	< 3.52
3. CCOP(=O)(COCCn1cnc2c(N)ncnc21)OCC	< 3.52
